The reported measurements were obtained from the supplement of paper PMC13380429.

Tested on: Vero E6 infected with SARS-CoV-2
Experiment: SARS-CoV-2 infection rate relative to infected DMSO; higher = more infection, active = 60 or less
Settings: 24 h
Items are presented alongside their recorded SARS-CoV-2 infection rate.
Answer format: numeric, % implied, no suffix.

Record excerpt, results attached:
- compound: "CN[C@H](CC(C)C)C(=O)N[C@H]1C(=O)N[C@@H](CC(N)=O)C(=O)N[C@H]2C(=O)N[C@H]3C(=O)N[C@H](C(=O)N[C@H](C(=O)O)c4cc(O)cc(O)c4-c4cc3ccc4O)[C@H](O)c3ccc(c(Cl)c3)Oc3cc2cc(c3O[C@@H]2O[C@H](CO)[C@@H](O)[C@H](O)[C@H]2O[C@H]2C[C@](C)(N)[C@H](O)[C@H](C)O2)Oc2ccc(cc2Cl)[C@H]1O (10 µM)"
  tested.on: "Vero E6 infected with SARS-CoV-2"
  SARS-CoV-2 infection rate [%]: 104
- compound: "Nc1nc(-c2nn(Cc3ccccc3F)c3ncccc23)ncc1C1CC1 (0.833333 µM)"
  tested.on: "Vero E6 infected with SARS-CoV-2"
  SARS-CoV-2 infection rate [%]: 102

(Q) Need SARS-CoV-2 infection rate, item CC1(C)NC(=O)N(c2ccc([N+](=O)[O-])c(C(F)(F)F)c2)C1=O [nilutamide] (10 µM)
(A) 108

(Q) What do we get for COc1cc2c(N3CCN(C(=O)Nc4ccc(OC(C)C)cc4)CC3)ncnc2cc1OCCCN1CCCCC1 [tandutinib] (10 µM) ?
(A) 95.5

(Q) What do we get for Cc1ccc(O)c(N=Nc2ccccc2)n1 (10 µM) ?
(A) 81

(Q) What do we get for NC(=O)c1cn(Cc2c(F)cccc2F)nn1 [rufinamide] (10 µM) ?
(A) 102

(Q) What do we get for CCc1cc(/C(C)=N/OCc2ccc(C3CCCCC3)c(C(F)(F)F)c2)ccc1CN1CC(C(=O)O)C1 [siponimod] (10 µM) ?
(A) 100
